Reported z-score values are given for each entry in this list.
# Experimental details: budding yeast growth changes without added modifier – OD600, strain BY4716, 24 h, basal condition, primary screen (AID 1173)
# Condition details: S. cerevisiae BY4716 growth, OD600, 24 h; higher = more signal, called active from +8 up or from −8 down
Quick one: just the number, no unit, thanks!

[
  {
    "Compound": "CCCC#C[Si](O[C@H](CC)c1cn([C@H](C)c2ccccc2)nn1)(C(C)C)C(C)C",
    "z-score": -12.9
  }
]

Below: the item to evaluate.
input: // fetch z-score given entry "CCOC(=O)C1=C[C@@H](c2ccccc2)N(S(=O)(=O)c2ccc(C)cc2)[C@H]1c1ccc(OC)cc1"
output: 1.11

###

# Experimental details: Pseudomonas biofilm growth suppression – PAO1 strain, BacTiter-Glo luminescence, LB-PBS, primary screen (AID 1144)
# Condition details: P. aeruginosa PAO1 biofilm, 12 h, higher = more signal
Measurement kind: z-score
Output spec: single numeric token, no unit.

[
  {
    "Compound": "CC(=O)NCCCC[C@@H]1NC(=O)[C@@H]2C[C@H](C(=O)NCCCCCN)[C@H](c3ccc(O)cc3)N2C1=O",
    "z-score": 0.268
  }
]

input: Dear colleague, please send me the reported z-score for CN1C(=O)C2C=CC(C(O)c3cccn3C)N(Nc3ccc([N+](=O)[O-])cc3[N+](=O)[O-])C2C1=O (configuration not stated) when you can.
output: -0.255

input: Determine from records and report z-score for CC(C)(C)OC(=O)CC[C@@]1(C(=O)NCC(O)CO)N=C(c2ccc(OCCCO)cc2)O[C@@H]1c1ccccc1CN=[N+]=[N-] (some centres not stated)
output: -0.719

input: Specify reported z-score for the compound shown: "CCOC(=O)C[C@H]1[C@H](OC(=O)c2ccc(C(=O)c3ccccc3)cc2)[C@@H](NC(=O)C2CCCCC2)c2cc(OCCCO)ccc2N1C(=O)c1ccc2ccccc2n1"
output: -1.09

input: State, in one line, measured z-score of "COCCOC(=O)N1C(=O)[C@@]2(c3ccccc31)[C@H](C(=O)NC[C@H](O)c1ccccc1)[C@H]1C(=O)O[C@H](c3ccccc3)[C@H](c3ccccc3)N1[C@@H]2c1ccc(O)cc1"
output: -0.193

input: Return value of z-score for input "COc1ccc([Si](C)(C)[C@@H]2[C@@H](CCO)O[C@]3(C(=O)N(Cc4ccccc4)c4ccc(N5C(=O)c6cccc7cccc5c67)cc43)[C@H]2C)cc1" , no commentary.
output: -0.441

input: Query z-score for "[N-]=[N+]=NCc1ccccc1[C@@H]1OC(c2ccc(OCCCO)cc2)=N[C@]1(CCS(=O)(=O)c1ccccc1)C(=O)O"
output: -0.127

###

Reported composite z-score values follow for various compounds
# Tested on: Sam68 (KHDRBS1)
# Experimental details: compounds binding KHDRBS1 protein – biochemical, small-molecule microarray, 635 nm fluorescence, primary screen (AID 1125);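 also: score merges 667 nm channel intensity with signal to noise over triplicate slides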
# Condition details: higher = more signal

[
  {
    "Compound": "COCCOC(=O)N1C(=O)[C@@]2(c3cc(C#CCCO)ccc31)[C@H](C(=O)Nc1nc3ccccc3s1)[C@H]1C(=O)O[C@H](c3ccccc3)[C@H](c3ccccc3)N1[C@@H]2c1ccc(O)cc1",
    "composite z-score": 1.31
  },
  {
    "Compound": "O=C1OCCC=C[C@H]2OC34C=CCN(c5ccc6ccccc6c5)C(=O)[C@H]3N(CCCO)C(=O)[C@@H]4C12 (stereo partly specified)",
    "composite z-score": -1.82
  },
  {
    "Compound": "COc1ccc(C#Cc2ccc3c(c2)[C@]2(C(=O)N3)[C@H](c3ccc(O)cc3)N3[C@H](c4ccccc4)[C@H](c4ccccc4)OC(=O)[C@H]3[C@@H]2C(=O)Nc2nc3ccccc3s2)cc1",
    "composite z-score": 1.29
  }
]

input: # return composite z-score of "CCOC(=O)C[C@H]1[C@H](OC(=O)c2cc3ccccc3oc2=O)[C@@H](NC(=O)CC(C)C)c2cc(OCCCO)ccc2N1C(=O)c1ccc2ccccc2n1" (system: Sam68 (KHDRBS1))
output: 1.26

input: Name the recorded composite z-score of "O=C1O[C@@H](c2ccccc2)[C@@H](c2ccccc2)N2[C@@H](c3ccc(O)cc3)[C@]3(C(=O)Nc4ccc(C#CCCO)cc43)[C@@H](C(=O)N3CCN(c4ncccn4)CC3)[C@H]12" , assay system Sam68 (KHDRBS1).
output: 1.11

input: Name the value of composite z-score reported for COc1cc(NN2C(C(O)c3ccco3)C=CC3C(=O)N(C)C(=O)C32)cc(OC)c1OC (stereo unspecified) when tested on Sam68 (KHDRBS1).
output: 0.633

###

# Experimental details: small molecules captured by biotinylated probe aFGF10 – biochemical, small-molecule microarray, fluorescence 635/667, stem cell growth factor project, primary screen (AID 1071);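 also: score merges 667 nm spot intensity and signal to noise from triplicate slides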
# Condition details: higher = more signal
Entries are sorted into classes by composite z-score as follows: lower level: < -0.02; middle level: ≥ -0.02 and < 0.4; upper level: ≥ 0.4

# count of solved cases: 8
[
  {
    "Molecule": "CC(C)[Si](C#C[Si](C(C)C)(C(C)C)C(C)C)(O[C@H](c1ccccc1)c1cn(Cc2ccccc2)nn1)C(C)C",
    "Class assignment": "middle level"
  },
  {
    "Molecule": "Cc1ccc(N2C(=O)c3ccccc3[C@@H](C(=O)NCCCN(C)C)[C@@H]2c2ccc(CO)cc2)nc1",
    "Class assignment": "lower level"
  },
  {
    "Molecule": "CCOC(=O)[C@@H]1CCCCN1C(=O)C(=O)OC",
    "Class assignment": "upper level"
  },
  {
    "Molecule": "CN(C)c1ccc(C(O)C2C=CC3C(=O)NC(=O)C3N2Nc2ccccn2)cc1 (stereo not given)",
    "Class assignment": "upper level"
  },
  {
    "Molecule": "COCCOC(=O)N1C(=O)[C@@]2(c3cc(C#CC4(O)CCCCCC4)ccc31)[C@H](C(=O)N1CCc3cc(OC)c(OC)cc3C1)[C@H]1C(=O)O[C@H](c3ccccc3)[C@H](c3ccccc3)N1[C@@H]2c1ccc(OCCO)cc1",
    "Class assignment": "upper level"
  },
  {
    "Molecule": "O=C1OCCC=C[C@H]2OC34C=CCN(c5ccc6ccccc6c5)C(=O)[C@H]3N(CCCO)C(=O)[C@@H]4C12 (stereo not given in full)",
    "Class assignment": "lower level"
  },
  {
    "Molecule": "O=C1O[C@@H](c2ccccc2)[C@@H](c2ccccc2)N2[C@@H](c3ccc(O)cc3)[C@]3(C(=O)Nc4ccc(C#CCCO)cc43)[C@@H](C(=O)N3CCN(c4ncccn4)CC3)[C@H]12",
    "Class assignment": "middle level"
  },
  {
    "Molecule": "COC(=O)c1c(CC[C@@H](CO)NC(=O)N2CCC[C@H]2Cn2cc(C3(O)CCCCC3)nn2)oc(C(C)=O)c1C(=O)OC",
    "Class assignment": "upper level"
  }
]

input: Textbook exercise: identify the category of the molecule given here, CC(C)c1ccc(NN2C(C(O)c3ccc(C#N)cc3)C=CC3C(=O)N(c4ccccc4)C(=O)C32)cc1 (stereo not given) , according to its measured value.
output: upper level

input: For CC(C)C(CO)N1C(=O)[C@@H]2[C@H]3C(=O)OCC=C[C@H]3OC23C=CCN(c2ccc(Cl)cc2)C(=O)[C@@H]13 (stereo not given in full) , which composite z-score bin applies?
output: lower level

input: Lab note: which band did "COCCOC(=O)N1C(=O)[C@@]2(c3ccccc31)[C@H](C(=O)NC[C@H](O)c1ccccc1)[C@H]1C(=O)O[C@H](c3ccccc3)[C@H](c3ccccc3)N1[C@@H]2c1ccc(O)cc1" land in?
output: upper level

input: Determine which band this molecule sits in: "COCCOC(=O)N1C(=O)[C@@]2(c3cc(C#CC4=CCCCC4)ccc31)[C@H](c1ccccc1OCCO)N1[C@H](c3ccccc3)[C@H](c3ccccc3)OC(=O)[C@H]1[C@@H]2C(=O)N1CCN(c2ncccn2)CC1"
output: upper level

input: Please report the category associated with "Cc1ccc(S[C@]2(C(=O)NCC(F)(F)F)CC(=O)N(Cc3cc(C(F)(F)F)cc(C(F)(F)F)c3)[C@@H]2c2ccc(CO)cc2)cc1" , nothing else.
output: lower level

input: Hey, which category is "CCCN1C(=O)[C@@]2(Cc3ccccc31)N=C(c1ccc(OCCCO)cc1)O[C@H]2c1ccccc1" in, do you know?
output: middle level

input: Which bin, given its composite z-score, does "C=CC[C@@H](OC(=O)Nc1ccc(SC)cc1)c1ccc(O)c(F)c1" occupy?
output: middle level

input: Category lookup for the molecule N#Cc1ccc(NN2C(C(O)c3ccc(Br)cc3)C=CC3C(=O)N(c4ccccc4)C(=O)C32)cc1 (stereo not given)
output: upper level

input: Band for "C=C[C@@H](CO)N(Cc1ccc(OC)cc1)S(=O)(=O)c1ccc(Br)cc1" ?
output: middle level

input: Entry "C=CC[C@@H](OC(=O)Nc1ccc(OC)cc1)c1ccc(O)c(F)c1" belongs to which category?
output: lower level

input: # bin label for "COCCCNC(=O)[C@@]1(Sc2ccc(C)cc2)CC(=O)N(C2Cc3ccccc3C2)[C@@H]1c1ccc(CO)cc1"
output: lower level

input: Which class does CC(=O)N1CC2(CC2)CC1c1ccccc1 (stereo not given) fall in?
output: middle level

input: Which of the defined bands does the recorded composite z-score of "CCOC(=O)C=Cc1cccc(C)c1O" sit within?
output: middle level

// provenance: PubChem BioAssay
